- STUDY_TARGET: Human SCD-1 (Homo sapiens)
- Construct: adding 125 μg of microsomal fraction of HepG2 cells; host or cells: HepG2 human hepatocarcinoma cells (microsomal fraction)
- Sequence (O00767 whole entry): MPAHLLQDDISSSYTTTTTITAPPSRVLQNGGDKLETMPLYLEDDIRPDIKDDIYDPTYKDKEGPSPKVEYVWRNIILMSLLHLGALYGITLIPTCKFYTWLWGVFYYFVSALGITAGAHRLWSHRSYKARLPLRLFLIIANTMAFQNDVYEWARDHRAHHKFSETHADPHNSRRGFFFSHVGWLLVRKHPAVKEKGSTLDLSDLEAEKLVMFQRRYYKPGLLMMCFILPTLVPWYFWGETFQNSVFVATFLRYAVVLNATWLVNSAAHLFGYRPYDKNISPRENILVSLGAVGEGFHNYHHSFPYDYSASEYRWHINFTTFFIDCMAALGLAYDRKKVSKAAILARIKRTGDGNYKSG
- EXPERIMENT: Human SCD-1 enzymatic activity from microsomes of HepG2 cells (conversion of stearic acid into oleic acid)
- Assay type: biochemical
- PROTOCOL_CONDITIONS: 10 μM compound; microsomal fraction of HepG2 cells; relative to carrier 0.1% DMSO; read-out: HSCD-1 (HEPG2) % inh. (10 μM)
VALUE_TYPE: inhibition at 10 µM (%)

                                   compound  u  data_value
0  Cn1nc(N2CCC(Oc3cc(F)ccc3Cl)CC2)c(=O)n(C)c1=O  %          86

I: Cn1c(=O)c(N2CCC(Oc3ccccc3C(F)(F)F)CC2)nn(-c2cccnc2)c1=O
II: Cn1nc(N2CCN(C(=O)c3ccccc3C(F)(F)F)CC2)c(=O)[nH]c1=O
Q. Endpoint returns the identifier whose inhibition at 10 µM is numerically larger, either I or II . In your reply, give the label of the chosen option.
A. I

A: Cn1nc(N2CCC(Oc3ccccc3Cl)CC2)c(=O)n(C)c1=O
B: Cn1c(=O)c(N2CCC(Oc3ccccc3C(F)(F)F)CC2)nn(CCc2c[nH]c3ccccc23)c1=O
C: CCCCCCCn1c(=O)c(N2CCN(C(=O)c3ccccc3C(F)(F)F)CC2)nn(C)c1=O
Q. Sort entries by inhibition at 10 µM from minimum to maximum value. Sort and list the labels as requested.
A. C, B, A

1: Cn1c(=O)c(N2CCN(C(=O)c3ccccc3C(F)(F)F)CC2)nn(CCCC(F)(F)F)c1=O
2: Cn1nc(N2CCC(Oc3ccc(F)cc3)CC2)c(=O)n(C)c1=O
Q. // pick larger inhibition at 10 µM from pair: 1 vs 2 Your answer should be the label attached to the chosen record.
A. 1

a: Cn1nc(N2CCC(Oc3ccccc3C(F)(F)F)CC2)c(=O)n(C)c1=O
b: CCCCn1nc(N2CCN(C(=O)c3ccccc3C(F)(F)F)CC2)c(=O)n(C)c1=O
Q. Which value of inhibition at 10 µM is numerically greater: that of a or that of b ? # reply format: chosen label
A. a

a: Cn1c(=O)[nH]nc(N2CCN(C(=O)c3cc(F)ccc3C(F)(F)F)CC2)c1=O
b: Cn1nc(N2CCN(C(=O)c3ccccc3C(F)(F)F)CC2)c(=O)n(C)c1=O
Q. // pick min by inhibition at 10 µM: a , b Pick one; state its label.
A. b

I: Cn1c(=O)c(N2CCC(Oc3ccccc3C(F)(F)F)CC2)nn(C2CCCCC2=O)c1=O (stereo not shown)
II: Cn1c(=O)c(N2CCC(Oc3ccccc3C(F)(F)F)CC2)nn(CCCC(=O)c2cccs2)c1=O
Q. Quick check, higher inhibition at 10 µM between I and II ? Response format: the label of the selected entry.
A. I
(I: 90%, II: 57%)

1: Cn1nc(N2CCN(C(=O)c3cc(F)ccc3C(F)(F)F)CC2)c(=O)n(C)c1=O
2: CCOCCOCCn1nc(N2CCC(Oc3ccccc3C(F)(F)F)CC2)c(=O)n(C)c1=O
Q. Hi, I'm comparing 1 with 2 and wondering which one has the bigger number for inhibition at 10 µM. Any idea? Respond with the label that goes with your answer.
A. 1
(1: 80%, 2: 48%)

1: Cn1c(=O)c(N2CCC(Oc3ccccc3C(F)(F)F)CC2)nn(-c2ccsc2)c1=O
2: Cn1nc(N2CCN(Cc3ccccc3C(F)(F)F)CC2)c(=O)n(C)c1=O
Q. Between the two listed entries 1 and 2 , which has its inhibition at 10 µM at the higher number? To answer, give the label that identifies your chosen option.
A. 1

The reported measurements were obtained from patent US8618287B2.
